Would you mind telling me the reported log10 of ED50 of each entry?
System: left ventricular contractility (left ventricular dp/dt max)
Experiment: Cardiac stimulant activity in vivo, left ventricular dp/dt max in anaesthetised cats
Settings: Felis catus, iv, read-out: ED50 (dose to increase left ventricular dp/dt max by 50%), i.v., pretreated with pempidine and propranolol
Values below are the log10 of the recorded ED50, with µmol/kg as the unit.

Worked examples, 4 compounds total:
> print(dat)
                                   compound  measured.parameter  measured.result
1      O=C1CCC(c2ccc(C3=NNC(=O)CC3)cc2)=NN1       log10 of ED50            -0.26
2  CC1CC(=O)NN=C1c1ccc(C2=NNC(=O)CC2C)cc1 (centres unmarked)       log10 of ED50            -1.22
3  CC1CC(=O)NN=C1c1ccc(-c2ccc(=O)[nH]n2)cc1 (centres unmarked)       log10 of ED50            -1.70
4  O=c1ccc(-c2cccc(-c3ccc(=O)[nH]n3)c2)n[nH]1       log10 of ED50             0.50

Field: next compound
Qu. For the compound O=c1ccc(-c2ccc(-c3ccc(=O)[nH]n3)cc2)n[nH]1 , give its measured log10 of ED50 value.
Ans. -1.40
